Target: T1, recombinant human IL-23R/Fc chimera (R&D Systems) (human, UniProt Q5VWK5 24-353)
T1 construct: bought; also called human IL-23R/Fc fusion protein; rhIL23RFc
T1 sequence (looked up): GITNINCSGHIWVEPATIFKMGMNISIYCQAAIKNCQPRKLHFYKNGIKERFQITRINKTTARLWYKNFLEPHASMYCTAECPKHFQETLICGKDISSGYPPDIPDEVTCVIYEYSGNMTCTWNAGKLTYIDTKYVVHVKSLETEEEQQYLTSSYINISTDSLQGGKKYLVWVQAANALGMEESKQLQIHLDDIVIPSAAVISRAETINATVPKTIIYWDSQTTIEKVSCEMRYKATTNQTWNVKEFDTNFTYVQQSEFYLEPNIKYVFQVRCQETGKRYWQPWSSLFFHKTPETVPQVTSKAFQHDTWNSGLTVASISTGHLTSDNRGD
Test: SPR (Biacore), captured IL-23R/Fc, ATRIMER
property name: koff

C3C ATRIMER (designed binder, Forms a homotrimer through the tetranectin coiled coil; one protomer is given., also called 001-89.C3C) EPPTQKPKKIVNAKKDVVNTKMFEELKSRLDTLAQEVALLKEQQALQTVCLKGTKVHMKCFLAFTQTKTFHEASEDCISRGGTLSTPQTGSENDALYEYLRQSVGNEAEIWLGLNANRRRTMWVDMTGARIAYKNWETEITAQPDGGMGVWGENCAVLSGAANGKWFDKRCRDQLPYICQFGIV: 0.000483 s⁻¹
101-113-6C108 ATRIMER (designed binder) EPPTQKPKKIVNAKKDVVNTKMFEELKSRLDTLAQEVALLKEQQALQTVCLKGTKVHMKCFLAFTQTKTFHEASEDCISRGGTLSTPQTGSENDALYEYLRQSVGNEAEIWLGLNGSALTNTWVDMTGARIAYKNWEPPPPHHPMGGFGVFGENCAVLSGAANGKWFDKRCRDQLPYICQFGIV: 0.000382 s⁻¹
101-51-1A9 ATRIMER (designed binder, ATRIMER is a homotrimer; one protomer is given., not shown: C-terminal purification tag: Myc/His6 (pANA4) or HA-StrepII (pANA10)) EPPTQKPKKIVNAKKDVVNTKMFEELKSRLDTLAQEVALLKEQQALQTVCLKGTKVHMKCFLAFTQTKTFHEASEDCISRGGTLSTPQTGSENDALYEYLRQSVGNEAEIWLGLNGSALTNTWVDMTGARIAYKNWEPARQPQPGGGFGYFGENCAVLSGAANGKWFDKRCRDQLPYICQFGIV: 0.000329 s⁻¹
101-80-5H3 ATRIMER (designed binder, ATRIMER is a homotrimer; one protomer is given., one residue deleted from Loop 4 (-GVFG); the GlyGly to AlaAla change; not shown: C-terminal purification tag: Myc/His6 (pANA4) or HA-StrepII (pANA10)) EPPTQKPKKIVNAKKDVVNTKMFEELKSRLDTLAQEVALLKEQQALQTVCLKGTKVHMKCFLAFTQTKTFHEASEDCISRGGTLSTPQTGSENDALYEYLRQSVGNEAEIWLGLNGSALTNTWVDMTGARIAYKNWEPPAPYHPMAAGVFGENCAVLSGAANGKWFDKRCRDQLPYICQFGIV: 0.000327 s⁻¹
B9B ATRIMER (designed binder, Forms a homotrimer through the tetranectin coiled coil; one protomer is given., also called 056-41.B9B) EPPTQKPKKIVNAKKDVVNTKMFEELKSRLDTLAQEVALLKEQQALQTVCLKGTKVHMKCFLAFTQTKTFHEASEDCISRGGTLSTPQTGSENDALYEYLRQSVGNEAEIWLGLNAPPDLGLWVDMTGARIAYKNWETEITAQPDGGWGVWGENCAVLSGAANGKWFDKRCRDQLPYICQFGIV: 0.000478 s⁻¹

Input line: Name the reported koff value associated with the binder 101-51-1A4 ATRIMER (designed binder, also called ATRIMER complex 1A4) EPPTQKPKKIVNAKKDVVNTKMFEELKSRLDTLAQEVALLKEQQALQTVCLKGTKVHMKCFLAFTQTKTFHEASEDCISRGGTLSTPQTGSENDALYEYLRQSVGNEAEIWLGLNGSALTNTWVDMTGARIAYKNWERPALVQPRGGFGVFGENCAVLSGAANGKWFDKRCRDQLPYICQFGIV
Output line: 0.000395 s⁻¹

Input line: Next record, please: A4A ATRIMER (designed binder, Forms a homotrimer through the tetranectin coiled coil; one protomer is given., also called 001-87.A4A) EPPTQKPKKIVNAKKDVVNTKMFEELKSRLDTLAQEVALLKEQQALQTVCLKGTKVHMKCFLAFTQTKTFHEASEDCISRGGTLSTPQTGSENDALYEYLRQSVGNEAEIWLGLNWTLAKNLWVDMTGARIAYKNWETEITAQPDGGLFGRGENCAVLSGAANGKWFDKRCRDQLPYICQFGIV
Output line: 0.000409 s⁻¹

Input line: Next record, please: A9E ATRIMER (designed binder) EPPTQKPKKIVNAKKDVVNTKMFEELKSRLDTLAQEVALLKEQQALQTVCLKGTKVHMKCFLAFTQTKTFHEASEDCISRGGTLSTPQTGSENDALYEYLRQSVGNEAEIWLGLNGSALTNTWVDMTGARIAYKNWETEITAQPDGGLGYWGENCAVLSGAANGKWFDKRCRDQLPYICQFGIV
Output line: 0.00033 s⁻¹

Input line: Next record, please: 101-54-4B10 ATRIMER (designed binder, ATRIMER is a homotrimer; one protomer is given., not shown: C-terminal purification tag: Myc/His6 (pANA4) or HA-StrepII (pANA10)) EPPTQKPKKIVNAKKDVVNTKMFEELKSRLDTLAQEVALLKEQQALQTVCLKGTKVHMKCFLAFTQTKTFHEASEDCISRGGTLSTPQTGSENDALYEYLRQSVGNEAEIWLGLNGSALTNTWVDMTGARIAYKNWERPPLYQPGGGFGYFGENCAVLSGAANGKWFDKRCRDQLPYICQFGIV
Output line: 0.000429 s⁻¹

Input line: Next record, please: 105-08-1A3 ATRIMER (designed binder, not shown: C-terminal tag: Myc/His6 (pANA4) or HA-StrepII (pANA10); A Ser left at the ompA junction may also sit at the N-terminus) EPPTQKPKKIVNAKKDVVNTKMFEELKSRLDTLAQEVALLKEQQALQTVCLKGTKVHMKCFLAFTQTKTFHEASEDCISRGGTLSTPQTGSENDALYEYLRQSVGNEAEIWLGLNGSPRTDTWVDMTGARIAYKNWETEITAQPDGGWGVFGENCAVLSGAANGKWFDKRCRDQLPYICQFGIV
Output line: 0.000348 s⁻¹

Input line: Next record, please: 101-51-1A5 ATRIMER (designed binder) EPPTQKPKKIVNAKKDVVNTKMFEELKSRLDTLAQEVALLKEQQALQTVCLKGTKVHMKCFLAFTQTKTFHEASEDCISRGGTLSTPQTGSENDALYEYLRQSVGNEAEIWLGLNGSALTNTWVDMTGARIAYKNWENGHEPQPRGGFGYFGENCAVLSGAANGKWFDKRCRDQLPYICQFGIV
Output line: 0.000289 s⁻¹

Input line: Next record, please: 4G8 ATRIMER (designed binder, Forms a homotrimer through the tetranectin coiled coil; one protomer is given., made in E. coli; also called 001-69.4G8; ATRIMER complex 4G8) EPPTQKPKKIVNAKKDVVNTKMFEELKSRLDTLAQEVALLKEQQALQTVCLKGTKVHMKCFLAFTQTKTFHEASEDCISRGGTLSTPQTGSENDALYEYLRQSVGNEAEIWLGLNGSRRSGVWVDMTGARIAYKNWETEITAQPDGGFGVFGENCAVLSGAANGKWFDKRCRDQLPYICQFGIV
Output line: 0.000805 s⁻¹

Input line: Next record, please: 105-20-2F12 ATRIMER (designed binder, not shown: C-terminal tag: His/Myc (pANA4) or HA-StrepII (pANA10)) EPPTQKPKKIVNAKKDVVNTKMFEELKSRLDTLAQEVALLKEQQALQTVCLKGTKVHMKCFLAFTQTKTFHEASEDCISRGGTLSTPQTGSENDALYEYLRQSVGNEAEIWLGLNGSKLTDTWVDMTGARIAYKNWETEITAQPDGGFGYFGENCAVLSGAANGKWFDKRCRDQLPYICQFGIV
Output line: 0.000471 s⁻¹
